assayDetails: 14-day daily oral repeated-dose DRF study in cynomolgus monkeys (mesylate salt)
Format: in vivo
measurementContext: both sexes, cynomolgus monkey, plasma, po, 8 mg/kg, 8 mg/kg (Gr. 4), Day 1
quantityMeasured: Cmax (ng/mL)
Lab book: enter the figure in ng/mL, no units written.

I have this compound here, CC(C)C[C@@H]1NCCN([C@@H](CC(C)C)C(=O)N2CCC3(C[C@@H]2C)OCC(CN2CCCC2)CO3)C1=O (stereo partly shown) , and I need its recorded Cmax.
8.95

----------
assayDetails: 14-day daily oral repeated-dose DRF study in cynomolgus monkeys (mesylate salt)
Format: in vivo
measurementContext: cynomolgus monkey, plasma, po, 4 mg/kg, 4 mg/kg (Gr. 1), Day 11
Experimental: The objective of this exploratory study was to assess the TK profile of Compound 1 when repeatedly administered via the oral route to cynomolgus monkeys. Compound 1 (mesylate salt) administration in this dose-range-finder study was intended once daily for up to 14 consecutive days by oral gavage to groups of naïve cynomolgus monkeys (n=1/sex/group) at dose levels of 0.5, 4, 8, or 12 mg Compound 1 per kg bodyweight and day, using a staggered approach. The vehicle was 0.5% Methylcellulose in water. […]
quantityMeasured: Tmax (h)
Lab book: enter the figure in h, no units written.

I have this molecule here, CC(C)C[C@@H]1NCCN([C@@H](CC(C)C)C(=O)N2CCC3(C[C@@H]2C)OCC(CN2CCCC2)CO3)C1=O (stereo partly shown) , and I need its recorded Tmax.
1
